Cited source: patent US20230141603A1

target: h-GABAA α1β3γ2 (Homo sapiens, UniProt P14867+P18507); construct: expressed in transfected cells; host or cells: HEK293F cells, membranes; test: Radioligand binding assay, [3H]Flumazenil competition, HEK293F membranes; details: Table 1; Log[Ki α1β3γ2 (nM)/Ki α2β2γ1 (nM)]
measuredAttribute: LogSel
One number for each entry.

[[record]]
smilesinput = "O=c1[nH]nc2n1-c1ccc(Cl)c(Cl)c1C(c1ncccc1F)=NC2"
systemname = "h-GABAA α1β3γ2 (Homo sapiens, UniProt P14867+P18507)"
measuredattribute = "LogSel"
quantitativeresult = 1.34


Each of the following entries comes with a recorded value; kindly state LogSel for each.
1. Cc1nnc2n1-c1ccc(Br)c(Cl)c1C(c1ncccc1F)=NC2
2. Cc1nnc2n1-c1ccc(Cl)c(Cl)c1C(c1ncccc1F)=NC2
3. Cc1ccc2c(c1Cl)C(c1c(F)cccc1F)=NCc1nncn1-2

Completion:
1. 1.40
2. 1.46
3. 1.40

Each of the following entries comes with a recorded value; kindly state LogSel for each.
1. Cc1nnc2n1-c1ccc(Cl)c(Cl)c1C(c1ccccc1F)=NC2
2. COc1nnc2n1-c1ccc(Cl)c(Cl)c1C(c1c(F)cccc1F)=NC2

Completion:
1: 1.08; 2: 1.72

Each of the following entries comes with a recorded value; kindly state LogSel for each.
1. Cl.NCc1nnc2n1-c1ccc(Br)c(Cl)c1C(c1c(F)cccc1F)=NC2
2. COc1ccc2c(c1Cl)C(c1c(F)cccc1F)=NCc1nnc(-c3cccnc3)n1-2
3. Clc1cccnc1C1=NCc2nnc(-c3ccncn3)n2-c2ccc(Br)c(Cl)c21
4. O=c1[nH]nc2n1-c1ccc(Br)c(Cl)c1C(c1ccccc1F)=NC2
5. CO[C@H]1C[C@H](c2nnc3n2-c2ccc(Cl)c(Cl)c2C(c2c(F)cccc2F)=NC3)C1
6. OCc1nnc2n1-c1ccc(Br)c(Cl)c1C(c1c(F)cccc1F)=NC2
7. Cc1ccc2c(c1Cl)C(c1c(F)cccc1F)=NCc1nnc(-c3ccncn3)n1-2

Completion:
1.33
1.59
1.46
1.34
1.57
1.26
2.02

Each of the following entries comes with a recorded value; kindly state LogSel for each.
1. Fc1cccc(F)c1C1=NCc2nnc(-c3cccnn3)n2-c2ccc(Br)c(Br)c21
2. Fc1cccc(F)c1C1=NCc2nncn2-c2ccc(C(F)(F)F)c(Cl)c21
3. Fc1cccnc1C1=NCc2nnc(-c3ccncn3)n2-c2ccc(Br)c(Cl)c21

Completion:
1.65
1.45
1.66

Each of the following entries comes with a recorded value; kindly state LogSel for each.
1. Fc1cccnc1C1=NCc2nnc(C3CC3)n2-c2ccc(Cl)c(Cl)c21
2. Fc1cccc(F)c1C1=NCc2nnc(-c3cccnn3)n2-c2ccc(C(F)(F)F)c(Cl)c21
3. Fc1cccc(F)c1C1=NCc2nnc(-c3cccnn3)n2-c2ccc(Cl)c(Cl)c21
4. COc1ccc2c(c1Cl)C(c1c(F)cccc1F)=NCc1nnc(C3CC3)n1-2
5. Cc1nnc2n1-c1ccc(C(F)(F)F)c(Cl)c1C(c1ncccc1F)=NC2
6. Cc1nnc2n1-c1ccc(Br)c(Cl)c1C(c1c(F)cccc1F)=NC2
7. Cc1nnc2n1-c1ccc(I)c(Cl)c1C(c1c(F)cccc1F)=NC2
8. Fc1cccnc1C1=NCc2nncn2-c2ccc(Cl)c(Cl)c21

Completion:
1. 1.38
2. 2.05
3. 1.94
4. 1.25
5. 1.94
6. 1.26
7. 1.34
8. 1.46

Each of the following entries comes with a recorded value; kindly state LogSel for each.
1. Fc1cccnc1C1=NCc2nncn2-c2ccc(Br)c(Cl)c21
2. Cc1nnc2n1-c1ccc(C(F)F)c(Cl)c1C(c1c(F)cccc1F)=NC2
3. Cc1nnc2n1-c1ccc(Br)c(Cl)c1C(c1c(F)cccc1Cl)=NC2
4. COc1ccc2c(c1Cl)C(c1c(F)cccc1F)=NCc1nnc(-c3ccncn3)n1-2

Completion:
1.22
1.38
1.20
1.44

----------
Target: h-GABAA α2β2γ1 (Homo sapiens, UniProt P47869+Q8N1C3)
Sequence (P47869 29-451): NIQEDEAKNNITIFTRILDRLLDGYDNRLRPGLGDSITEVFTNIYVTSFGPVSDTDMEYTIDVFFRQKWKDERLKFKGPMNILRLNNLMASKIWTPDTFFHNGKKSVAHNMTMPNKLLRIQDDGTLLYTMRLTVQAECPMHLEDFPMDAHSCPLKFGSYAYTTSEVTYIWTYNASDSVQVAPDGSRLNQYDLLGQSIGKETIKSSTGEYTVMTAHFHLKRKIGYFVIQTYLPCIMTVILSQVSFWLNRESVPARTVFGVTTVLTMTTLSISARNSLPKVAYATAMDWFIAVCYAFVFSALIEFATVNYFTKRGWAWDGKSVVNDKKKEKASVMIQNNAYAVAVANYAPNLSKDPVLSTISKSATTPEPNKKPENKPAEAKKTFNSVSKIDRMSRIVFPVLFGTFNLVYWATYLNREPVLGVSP
Sequence (P47870 25-512 partner limits assumed): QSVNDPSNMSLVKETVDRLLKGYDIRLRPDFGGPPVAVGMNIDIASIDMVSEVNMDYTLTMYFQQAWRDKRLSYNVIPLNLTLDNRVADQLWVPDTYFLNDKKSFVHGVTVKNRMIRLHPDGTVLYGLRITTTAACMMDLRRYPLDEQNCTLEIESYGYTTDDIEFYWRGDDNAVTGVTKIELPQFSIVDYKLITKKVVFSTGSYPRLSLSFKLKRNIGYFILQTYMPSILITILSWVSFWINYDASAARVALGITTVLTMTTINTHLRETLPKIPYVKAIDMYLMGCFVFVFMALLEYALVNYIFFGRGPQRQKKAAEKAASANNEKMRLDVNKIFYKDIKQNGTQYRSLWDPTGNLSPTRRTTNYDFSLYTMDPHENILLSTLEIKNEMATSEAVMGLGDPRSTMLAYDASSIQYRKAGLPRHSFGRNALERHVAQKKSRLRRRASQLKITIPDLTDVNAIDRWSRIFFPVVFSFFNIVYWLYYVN
Sequence (Q8N1C3 36-465): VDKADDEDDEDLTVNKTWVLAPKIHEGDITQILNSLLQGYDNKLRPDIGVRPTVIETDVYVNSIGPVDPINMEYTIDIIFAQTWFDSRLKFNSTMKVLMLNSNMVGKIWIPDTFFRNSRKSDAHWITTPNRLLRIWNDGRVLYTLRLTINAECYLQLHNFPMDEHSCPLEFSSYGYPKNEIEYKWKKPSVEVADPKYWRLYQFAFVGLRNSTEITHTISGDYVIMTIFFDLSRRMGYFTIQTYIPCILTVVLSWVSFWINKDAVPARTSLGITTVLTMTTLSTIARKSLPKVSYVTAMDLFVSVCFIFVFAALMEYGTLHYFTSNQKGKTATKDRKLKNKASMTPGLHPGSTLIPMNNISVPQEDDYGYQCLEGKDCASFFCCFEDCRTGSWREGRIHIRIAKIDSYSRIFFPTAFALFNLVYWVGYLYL
Assay: Two-electrode voltage clamp electrophysiology in Xenopus oocytes, modulation of GABA EC20 current
Type: cell-based
Design: host or cells: Xenopus laevis oocytes, RNA micro-injection
Details: Table 2; % modulation of GABA EC20 = 100*(Fold increase−1); compound at approx. 30-fold Ki
For each record, write down the corresponding Efficacy (GABA)%.
For clarity, give the value followed by its unit.

Look over these answered cases.
[[record]]
smilesinput = "Fc1cccc(F)c1C1=NCc2nncn2-c2ccc(C(F)F)c(Cl)c21"
result = "61%"

[[record]]
smilesinput = "Cn1cc(-c2nnc3n2-c2ccc(Cl)c(Cl)c2C(c2c(F)cccc2F)=NC3)cn1"
result = "59%"


# ---- query compound ----
Prompt: Could you share what Efficacy (GABA)% was measured for "OCc1nnc2n1-c1ccc(Br)c(Cl)c1C(c1c(F)cccc1F)=NC2" , tested on h-GABAA α2β2γ1 (Homo sapiens, UniProt P47869+Q8N1C3)?
Completion: 80%

----------
target: h-GABAA α2β2γ1 (Homo sapiens, UniProt P47869+Q8N1C3); assay: Two-electrode voltage clamp electrophysiology in Xenopus oocytes, modulation of GABA EC20 current; type: cell-based; design: host or cells: Xenopus laevis oocytes, RNA micro-injection; settings: Table 2; compound at approx. 30-fold its Ki α2β2γ1, GABA EC20, Xenopus oocytes
For each record, write down the corresponding Fold increase h-GABA-A α2β2γ1 oocyte @ 30-fold Ki.
Numbers only.

Look over these answered cases.
[[record]]
molecule = "Fc1cccc(F)c1C1=NCc2nncn2-c2ccc(C(F)(F)F)c(Cl)c21 [Example 37]"
quantitativeresult = 1.67

[[record]]
molecule = "Cn1cc(-c2nnc3n2-c2ccc(Cl)c(Cl)c2C(c2ncccc2F)=NC3)cn1 [Example 58]"
quantitativeresult = 1.67

[[record]]
molecule = "Fc1cccc(F)c1C1=NCc2nnc(C3CCOCC3)n2-c2ccc(Cl)c(Cl)c21 [Example 11]"
quantitativeresult = 1.60


Each of the following entries comes with a recorded value; kindly state Fold increase h-GABA-A α2β2γ1 oocyte @ 30-fold Ki for each.
1. Fc1cccc(F)c1C1=NCc2nncn2-c2ccc(I)c(Cl)c21 [Example 34]
2. Fc1ccccc1C1=NCc2nnc(-c3cccnn3)n2-c2ccc(Br)c(Cl)c21 [Example 3]

Completion:
1. 1.81
2. 2.13

Each of the following entries comes with a recorded value; kindly state Fold increase h-GABA-A α2β2γ1 oocyte @ 30-fold Ki for each.
1. Clc1cccnc1C1=NCc2nnc(-c3ccncn3)n2-c2ccc(Br)c(Cl)c21 [Example 44]
2. Cc1nnc2n1-c1ccc(Br)c(Cl)c1C(c1ncccc1F)=NC2 [Example 24]

Completion:
[1.62, 1.85]
